Listed below are compounds with Ki for Glycogen synthase kinase-3 beta (Homo sapiens), each taken from published literature.

Here is how some compounds turned out for Ki.
{"columns": ["Compound", "Assay value"],
 "data": [
  ["CC(=O)Nc1ccc(Nc2nc(Nc3cc(C)[nH]n3)c3ccccc3n2)cc1", "100 to 1000 nM"],
  ["CC(=O)Nc1ccc(Oc2nc(Nc3cc(C)[nH]n3)cc(-c3ccccc3)n2)cc1", "100 to 1000 nM"],
  ["Cc1cccc(Nc2nc(Nc3cc(C4CC4)[nH]n3)c3ccccc3n2)c1C", "< 100 nM"],
  ["COCCNC(=O)c1cc(Nc2nc(-c3ccccc3)nc3ccccc23)[nH]n1", "1000 to 20000 nM"],
  ["O=[N+]([O-])c1ccc2[nH]nc(Nc3nc(-c4ccccc4C(F)(F)F)nc4ccccc34)c2c1", "< 100 nM"],
  ["Nc1n[nH]c2cc(=O)n(-c3ccc(Oc4ccccc4)cc3)nc12", "< 4000 nM"]
]}

## Task Field: Ki (Glycogen synthase kinase-3 beta (Homo sapiens)). Entry: FC(F)(F)c1ccccc1-c1nc(Nc2n[nH]c3cc(Cl)ccc23)c2ccccc2n1
## Result < 100 nM

## Task Kindly state the measured Ki obtained for Fc1cccc(-c2cnoc2-c2c[nH]c3ncc(-c4ccccc4)cc23)c1F with Glycogen synthase kinase-3 beta (Homo sapiens).
## Result 200 to 1000 nM

## Task What Ki appears in the records for this compound with Glycogen synthase kinase-3 beta (Homo sapiens)? Fc1cccc(Nc2nccc(-c3nccs3)n2)c1
## Result < 100 nM

## Task Request body: readout Ki, system Glycogen synthase kinase-3 beta (Homo sapiens), query CC(=O)N1[C@H](C)CN(c2cc(-n3cnc(Nc4ccc(NC(=O)c5ccco5)cc4)n3)ccn2)C[C@@H]1C . Return the value.
## Result > 1000 nM

## Task Lookup: Ki / Glycogen synthase kinase-3 beta (Homo sapiens) / C#Cc1ccc(-c2nc(Nc3cc(C)n[nH]3)c3ccccc3n2)cc1
## Result < 100 nM

## Task Form: Entry = Cc1cnc(NC(CO)c2ccc(F)c(Cl)c2)nc1-c1c[nH]c(C(=O)NC(CO)c2ccccc2)c1 (stereo not drawn) | System = Glycogen synthase kinase-3 beta (Homo sapiens) | Ki = ____
## Result 100 to 1000 nM

## Task API: value(readout= Ki, system= Glycogen synthase kinase-3 beta (Homo sapiens), query= Cc1cc(Nc2n[nH]c3ccc(F)cc23)nc(C2CCOCC2)n1 )
## Result 25 to 500 nM

## Task // fetch Glycogen synthase kinase-3 beta (Homo sapiens) Ki for CN(C)CCCN(C)c1cc(-n2cnc(Nc3ccccc3)n2)ccn1
## Result > 1000 nM

## Task Entry N#CCOc1cccc2c1nc(-c1nonc1N)n2CC#N , system Glycogen synthase kinase-3 beta (Homo sapiens): what Ki was measured?
## Result < 1000 nM

## Task API: value(readout= Ki, system= Glycogen synthase kinase-3 beta (Homo sapiens), query= CC(=O)Nc1ccc(Sc2nc(Nc3cc(C)[nH]n3)c(C)c(-c3ccccc3)n2)cc1 )
## Result 1000 to 7000 nM

## Task Fill in the recorded Ki for this compound, with Glycogen synthase kinase-3 beta (Homo sapiens) as test system: N#Cc1ccc(NCCNc2nc(-c3ccccc3Cl)nc3cccnc23)nc1
## Result < 100 nM

## Task Value wanted: Ki (Glycogen synthase kinase-3 beta (Homo sapiens)) of entry Cc1nc(-c2ccccc2C(F)(F)F)nc(Nc2n[nH]c3c(F)cccc23)c1C
## Result < 100 nM

* * *

pKi: −log10 of the molar value.
A compilation of pKi values for Glycogen synthase kinase-3 beta (Homo sapiens, UniProt P49841) from the published literature.

## Task I am curious: what pKi value has been reported for Cc1nc(-c2ccccc2C(F)(F)F)nc(Nc2n[nH]c3ccccc23)c1C ?
## Result > 7.00

## Task Fill in the blank: the reported pKi of Fc1ccc2[nH]nc(Nc3nc(C4CC4c4ccccc4)nc4ccccc34)c2c1 (stereo not drawn) is ____.
## Result 6.00 to 7.00

## Task Form field: reported pKi of Fc1cc(F)c2[nH]nc(Nc3nc(-c4cccnc4Cl)nc4ccccc34)c2c1
## Result > 7.00

## Task So what does the record say about pKi for Fc1cccc(-c2cnoc2-c2c[nH]c3ncc(C4=CCC(N5CCOCC5)CC4)cc23)c1F (stereo not drawn) ?
## Result > 6.70

## Task Tell me the measured pKi of C=Cc1cnc2[nH]cc(-c3oncc3-c3cccc(F)c3F)c2c1 , please.
## Result 6.00 to 6.70

* * *

A compilation of published Ki results with Glycogen synthase kinase-3 beta (Homo sapiens).

{"columns": ["Compound", "Reported property", "Assay value"],
 "data": [
  ["Cc1cc(Nc2nc(C(C)(C)c3ccccc3)nc3c2CCCCC3)n[nH]1", "Ki", "< 100 nM"]
]}

## Task # returns recorded Ki (system: Glycogen synthase kinase-3 beta (Homo sapiens)) for c1ccc(-n2cnc(Nc3ccnc(N4CCOCC4)c3)n2)cc1
## Result > 1000 nM

## Task Lab note: need Ki for Fc1cc(F)c2[nH]nc(Nc3nc(-c4ccccc4C(F)(F)F)nc4c3CCCCC4)c2c1 on Glycogen synthase kinase-3 beta (Homo sapiens), anyone have it?
## Result < 100 nM

## Task Lab request: please report Ki under test system Glycogen synthase kinase-3 beta (Homo sapiens) for O=C(NC1CC1)c1cc(Nc2nc(-c3ccccc3)nc3ccccc23)[nH]n1
## Result 100 to 1000 nM

## Task Find the measured Ki: item CCc1cc(Nc2nc(Nc3cc(CC)[nH]n3)c3ccccc3n2)n[nH]1 , target or system Glycogen synthase kinase-3 beta (Homo sapiens).
## Result 1000 to 7000 nM

## Task Query the reported Ki for Glycogen synthase kinase-3 beta (Homo sapiens); item: N#Cc1ccc(NCCNc2nc(-c3ccccc3Cl)nc3ccccc23)nc1
## Result < 100 nM

## Task Give Glycogen synthase kinase-3 beta (Homo sapiens) Ki for c1ccc2c(c1)CN(c1nc(Nc3cc(C4CC4)n[nH]3)c3ccccc3n1)C2
## Result < 100 nM

## Task Ki of Cc1cc(Nc2nc(N3CCN(C)CC3)nc3ccccc23)[nH]n1 on Glycogen synthase kinase-3 beta (Homo sapiens)?
## Result 100 to 1000 nM

## Task Request - read-out Ki | tested on Glycogen synthase kinase-3 beta (Homo sapiens) | compound Fc1ccccc1COc1cccc(Nc2nccc(-c3nccs3)n2)c1
## Result < 100 nM

## Task GET /values?readout=Ki&system=Glycogen synthase kinase-3 beta (Homo sapiens)&item= Fc1ccc2[nH]nc(Nc3nc(-c4ccccc4)nc4c3CNCC4)c2c1
## Result 100 to 1000 nM

* * *

pKi: −log10 of the molar value.
pKi for Glycogen synthase kinase-3 beta (Homo sapiens) - collated from the literature.

Examples with their reported pKi follow.
{"columns": ["Compound", "pKi"],
 "data": [
  ["Cc1cc(Nc2nc(N3CCC4(CC3)OCCO4)nc3ccccc23)[nH]n1", "6.00 to 7.00"],
  ["Cc1cc(Nc2nc(-c3ccccc3O)nc3ccccc23)n[nH]1", "6.00 to 7.00"],
  ["CC(=O)N1[C@H](C)CN(c2cc(-n3cnc(Nc4ccc(NC(=O)OCC(C)C)cc4)n3)ccn2)C[C@@H]1C", "< 6.00"],
  ["O=C(c1cc(Nc2nc(-c3ccccc3)nc3ccccc23)[nH]n1)N1CCOCC1", "4.70 to 6.00"],
  ["Fc1cccc(-c2cnoc2-c2c[nH]c3ncc(C4CCNCC4)cc23)c1F", "6.00 to 6.70"],
  ["N#Cc1ccc(NCCNc2nc(-c3cc(Cl)ccc3-c3ccccc3)nc3ccccc23)nc1", "> 7.00"],
  ["Clc1ccccc1-c1nc2c(c(Nc3n[nH]c4ccccc34)n1)CCCCC2", "> 7.00"]
]}

## Task State its pKi on Glycogen synthase kinase-3 beta (Homo sapiens): Cc1cnc(NCC(F)(F)F)nc1-c1c[nH]c(C(=O)NC(CO)c2ccccc2)c1 (centres unmarked)
## Result > 7.00

* * *

Here we gather pKi data for Glycogen synthase kinase-3 beta (Homo sapiens, UniProt P49841) reported by several publications.
pKi: −log10 of the molar value.

Illustrative cases are given below, each with its answer.
{"columns": ["Molecule", "pKi"],
 "data": [
  ["COC(=O)c1ccc(Sc2nc(Nc3cc(C4CC4)[nH]n3)c3ccccc3n2)cc1", "6.00 to 7.00"],
  ["Clc1cccc(Cl)c1-c1nc(Nc2n[nH]c3ccccc23)c2ccccc2n1", "> 7.00"],
  ["Cc1cc(Nc2nc(N3CCCCCC3)nc3ccccc23)[nH]n1", "> 7.00"],
  ["COc1ccc(-c2ccccc2)cc1Nc1nccc(-c2nccs2)n1", "< 6.00"],
  ["Cc1cc(Nc2cc(-c3ccco3)[nH]n2)nc(Nc2ccc(Cl)cc2)n1", "> 7.00"],
  ["CN1CCN(c2ccc(-c3cnc4[nH]cc(-c5oncc5-c5cccc(F)c5F)c4c3)cn2)CC1", "6.00 to 6.70"],
  ["NC1CC=C(c2cnc3[nH]cc(-c4oncc4-c4cccc(F)c4F)c3c2)CC1 (stereo not drawn)", "> 6.70"],
  ["COc1cccc2c(Nc3cc(C4CC4)[nH]n3)nc(Sc3ccc(NC(C)=O)cc3)nc12", "5.15 to 6.00"]
]}

## Task Quick check: pKi of Cc1nc(-c2ccccc2Cl)nc(Nc2n[nH]c3ccc(F)cc23)c1C ?
## Result > 7.00

## Task Bench note: what pKi did Cc1cnc(NC(C)C)nc1-c1c[nH]c(C(=O)NC(CO)c2ccccc2)c1 (stereo not drawn) show?
## Result > 7.00

## Task Tell me the measured pKi of Fc1cccc(-c2cnoc2-c2c[nH]c3ncc(-c4ccc(CN5CCCC5)cc4)cc23)c1F , please.
## Result 6.00 to 6.70

## Task Given the molecule Cc1cnc(Nc2cccc(-c3cccc(N)c3)c2)nc1-c1nccs1 , what is its reported pKi?
## Result > 7.00

## Task Reported pKi, molecule Cc1cc(Nc2nc(Nc3ccc(C)c(C)c3)nc3ccccc23)n[nH]1 : ____
## Result 6.00 to 7.00

## Task What value of pKi has been reported for the following molecule? Cc1cnc(NCC(C)C)nc1-c1c[nH]c(C(=O)NC(CO)c2ccccc2)c1 (stereo not drawn)
## Result > 7.00

## Task Quick check: pKi of Fc1cccc(-c2cnoc2-c2c[nH]c3ncc(CCn4cncn4)cc23)c1F ?
## Result 6.00 to 6.70

## Task Using the record for c1ccc2cc(Nc3nccc(-c4nccs4)n3)ccc2c1 , report its pKi.
## Result > 7.00

## Task Reported pKi for COc1ccc(CSc2nc(Nc3cc(C)[nH]n3)cc(N3CCN(C)CC3)n2)cc1 : what is it?
## Result 6.00 to 7.00

## Task Requested field: pKi. Item: Cc1cc(Nc2cc(C)[nH]n2)nc(Nc2ccc(Cl)cc2)n1
## Result > 7.00
